All values here come from paper PMC3246390.

target: mouse Vα14Vβ8.2 NKT TCR (glycolipid presented by mouse CD1d) (Mus musculus); assay type: binding; conditions: read-out: KD(Kdiss/Kass); SPR, TCR binding to mouse CD1d-glycolipid complex
Sequence (P11609 19-297): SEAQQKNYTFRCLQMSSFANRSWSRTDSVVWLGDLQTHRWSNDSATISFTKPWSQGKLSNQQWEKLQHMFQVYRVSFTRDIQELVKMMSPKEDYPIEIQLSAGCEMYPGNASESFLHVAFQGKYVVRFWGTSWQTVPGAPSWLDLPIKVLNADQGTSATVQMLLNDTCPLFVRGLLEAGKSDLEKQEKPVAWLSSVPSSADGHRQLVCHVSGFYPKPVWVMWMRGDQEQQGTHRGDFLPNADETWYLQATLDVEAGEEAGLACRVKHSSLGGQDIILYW
Sequence (P01887 21-119 partner): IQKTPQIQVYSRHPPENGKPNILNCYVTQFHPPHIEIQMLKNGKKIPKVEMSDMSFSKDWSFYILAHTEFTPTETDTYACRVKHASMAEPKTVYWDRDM
Sequence (P01849 1-110 partner): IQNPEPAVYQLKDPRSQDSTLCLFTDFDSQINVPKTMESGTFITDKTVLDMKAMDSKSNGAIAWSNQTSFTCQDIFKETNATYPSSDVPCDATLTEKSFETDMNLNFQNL
reported.endpoint: Kd (nM)
Please state the figure in nM; there is no need to write the unit.

Query Kd on mouse Vα14Vβ8.2 NKT TCR (glycolipid presented by mouse CD1d) (Mus musculus) for CCCCCCCCCCCCCCC(O)C(O)C(CO[C@H]1O[C@H](C(=O)O)[C@H](O)[C@H](O)[C@H]1O)NC(=O)CCCCCc1ccccc1 (stereo partly shown) [compound 14]
75.3
